# credit: ChEMBL document CHEMBL1153159

target: Transient receptor potential cation channel subfamily A member 1 (Homo sapiens); experiment: Agonist activity at human TRPA1 expressed in HEK293 cells assessed as [45]Ca2+ influx by microbeta plate count
pEC50: −log10 of the molar value.
observable: pEC50

[in] Form field: reported pEC50 of `CC(=C\c1cccc(C)c1)/C(C)=N/O`
[out] 4.84

[in] Record: `CC(/C=C/c1ccccc1)=N\O`
[out] 4.02

[in] Record: `COc1ccc(/C=C(C)/C(C)=N/O)cc1`
[out] 4.34

[in] Record: `CC(/C=N/O)=C\c1ccccc1`
[out] 4.16

1: O/N=C\C=C\c1ccc(Cl)cc1
2: CC(/C=C/c1cccc(Cl)c1)=N\O
3: CN(C)c1ccc(/C=C/C=N/O)cc1
4: CC(/C=C/c1ccc(Cl)cc1)=N\O
[in] # rank by pEC50, ascending (min first) Order the labels as requested and list them.
[out] 2, 4, 3, 1

* * *

molecular target: UniProt:O75762; test: Antagonist activity at human TRPA1 expressed in HEK293 cells assessed as [45]Ca2+ influx by microbeta plate count; type: functional, cell-based
pIC50: −log10 of the molar value.
observable: pIC50

[in] Form field: reported pIC50 of `CC(=C\c1ccccc1)/C(C)=N/O`
[out] 5.57

[in] Record: `CC(=C\c1ccc(Cl)cc1)/C(C)=N/O`
[out] 5.55

* * *

target: Transient receptor potential cation channel subfamily A member 1 (Homo sapiens, UniProt O75762); test: Agonist activity at human TRPA1 expressed in HEK293 cells assessed as [45]Ca2+ influx by microbeta plate count relative to cinnamaldehyde; format: functional, cell-based
Sequence (O75762 whole entry): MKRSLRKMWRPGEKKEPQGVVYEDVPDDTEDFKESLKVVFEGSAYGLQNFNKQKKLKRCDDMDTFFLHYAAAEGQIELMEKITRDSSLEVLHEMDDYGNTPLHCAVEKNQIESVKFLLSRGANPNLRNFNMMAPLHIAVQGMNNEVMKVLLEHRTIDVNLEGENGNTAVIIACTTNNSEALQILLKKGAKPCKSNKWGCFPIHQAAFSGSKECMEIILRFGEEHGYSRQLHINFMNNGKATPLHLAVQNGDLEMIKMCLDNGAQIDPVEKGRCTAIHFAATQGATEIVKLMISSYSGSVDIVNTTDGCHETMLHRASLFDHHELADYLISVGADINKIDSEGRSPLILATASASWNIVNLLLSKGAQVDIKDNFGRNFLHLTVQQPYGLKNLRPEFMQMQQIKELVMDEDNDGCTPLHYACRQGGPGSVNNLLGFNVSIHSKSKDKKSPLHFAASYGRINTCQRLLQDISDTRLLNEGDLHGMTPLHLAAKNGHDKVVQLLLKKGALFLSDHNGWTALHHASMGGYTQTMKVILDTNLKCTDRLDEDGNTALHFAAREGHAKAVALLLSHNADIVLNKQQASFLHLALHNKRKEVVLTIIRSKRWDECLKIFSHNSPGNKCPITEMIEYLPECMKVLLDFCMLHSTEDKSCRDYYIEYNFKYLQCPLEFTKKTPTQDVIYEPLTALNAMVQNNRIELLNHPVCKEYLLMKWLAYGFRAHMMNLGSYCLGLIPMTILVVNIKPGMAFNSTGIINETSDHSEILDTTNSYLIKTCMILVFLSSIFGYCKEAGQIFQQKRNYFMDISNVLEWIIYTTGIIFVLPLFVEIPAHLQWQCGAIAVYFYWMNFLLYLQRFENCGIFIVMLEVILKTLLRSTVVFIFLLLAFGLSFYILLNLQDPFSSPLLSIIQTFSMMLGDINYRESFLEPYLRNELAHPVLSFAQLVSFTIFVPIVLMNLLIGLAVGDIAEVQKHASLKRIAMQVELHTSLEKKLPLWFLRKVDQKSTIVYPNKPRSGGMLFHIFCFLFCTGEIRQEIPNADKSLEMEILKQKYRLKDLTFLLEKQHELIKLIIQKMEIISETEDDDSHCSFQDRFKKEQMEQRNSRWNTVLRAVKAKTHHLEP
observable: Efficacy

Here is how some compounds turned out for Efficacy.
[in] Form field: reported Efficacy of `CC(/C=C/c1ccc2c(c1)OCO2)=N\O`
[out] 0.54

[in] Record: `CC(/C=N/O)=C\c1ccc(C(C)(C)C)cc1`
[out] 0.15

[in] Record: `CC(=C\c1ccc(Cl)cc1)/C(C)=N/O`
[out] 0

A: CC(=C\c1ccccc1Cl)/C(C)=N/O
B: COc1ccc(/C=C(C)/C(C)=N/O)cc1
C: CN(C)c1ccc(/C=C/C=N/O)cc1
D: O/N=C/C=C/c1ccc(Cl)cc1
[in] # rank by Efficacy, ascending (min first) Order the labels as requested and list them.
[out] A, B, D, C

A: O/N=C/C=C/c1ccccc1
B: CC(/C=C/c1ccccc1)=N\O
[in] // task: argmin of Efficacy over [ A , B ] To answer, give the label that identifies your chosen option.
[out] A

1: CC(=C\c1cccc([N+](=O)[O-])c1)/C(C)=N/O
2: CC(/C=C/c1cccc(Cl)c1)=N\O
3: CC(/C=N/O)=C\c1ccccc1
[in] # sort list by recorded Efficacy, greatest to least Order the labels as requested and list them.
[out] 2, 3, 1
(2: 0.85, 3: 0.18, 1: 0)

1: CC(=C\c1ccccc1)/C(C)=N/O
2: O/N=C\C=C\c1ccc(Cl)cc1
[in] // max by Efficacy over [ 1 , 2 ] To answer, give the label that identifies your chosen option.
[out] 2

I: CC(=C\c1cccc(C)c1)/C(C)=N/O
II: CC(/C=C/c1cccc(Cl)c1)=N/O
III: O/N=C/C=C/c1ccc(C(F)(F)F)cc1
[in] # sort list by recorded Efficacy, greatest to least Order the labels as requested and list them.
[out] I, II, III
(I: 0.84, II: 0.21, III: 0.13)
